Every entry's value here was drawn from the supplement of paper PMC10065799.

system: AncSZ; assay: phosphorylation enrichment, bacterial display (enrichment ratio); higher = better substrate or ligand; peptides without Tyr show the background;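 note: 11-residue human phosphosite peptides and single-mutation variants displayed on the E. coli surface, counted by deep sequencing, each peptide's frequency after selection divided by its frequency in the unselected input library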;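 note: frequency after pTyr selection over input frequency; kinase dosed for 20-30% of maximal phosphorylation in three min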
Output MET for phosphorylation enrichment not less than 0.8; output NOT MET otherwise.

Asked: Quick check, phosphorylation enrichment >= 0.8? SIKDKYVTALC [KCNH2_Y611_Y616C]
Given back: NOT MET

Asked: Quick check, phosphorylation enrichment >= 0.8? RKIMGYSIRTI [IDS_Y490_I485R]
Given back: NOT MET

Asked: Quick check, phosphorylation enrichment >= 0.8? TQNGVYSAANF [DDX5_Y535_YF]
Given back: NOT MET

Asked: Quick check, phosphorylation enrichment >= 0.8? DPLLTYQFPPK [LMNA_Y481_R482Q]
Given back: MET

Asked: Quick check, phosphorylation enrichment >= 0.8? NGRTGYVLQPE [PLCG2_Y1036]
Given back: NOT MET

Asked: Quick check, phosphorylation enrichment >= 0.8? QMEKICTQQIQ [CCNB1IP1_Y125_Y125C]
Given back: MET

Asked: Quick check, phosphorylation enrichment >= 0.8? HVIKLFGACSQ [RET_Y791_Y791F]
Given back: MET

Asked: Quick check, phosphorylation enrichment >= 0.8? LVMFIYDIFGM [SCN1A_Y1684_A1685D]
Given back: MET

Asked: Quick check, phosphorylation enrichment >= 0.8? LSVMSYDLGMF [GBA3_Y174]
Given back: MET

Asked: Quick check, phosphorylation enrichment >= 0.8? VDTRAYFTSAT [MT-CO1_Y304]
Given back: NOT MET

Asked: Quick check, phosphorylation enrichment >= 0.8? LLFRVYGLESL [INSR_Y94]
Given back: MET

Asked: Quick check, phosphorylation enrichment >= 0.8? ELTSVYGSRAR [SENP1_Y349_D350G]
Given back: NOT MET

Asked: Quick check, phosphorylation enrichment >= 0.8? DFTEAYNSKIK [CLK1_Y305_P307S_YF]
Given back: MET

Asked: Quick check, phosphorylation enrichment >= 0.8? GDYYRSLAEVA [YWHAG_Y133_Y133S]
Given back: MET

Asked: Quick check, phosphorylation enrichment >= 0.8? SSMIDYNLLEK [MYOC_Y479_P481L]
Given back: MET

Asked: Quick check, phosphorylation enrichment >= 0.8? FMGVEYSSCDT [EPHA3_Y937_T933M]
Given back: MET

Asked: Quick check, phosphorylation enrichment >= 0.8? RLLRGYDQSAY [HLA-C_Y137]
Given back: NOT MET

Asked: Quick check, phosphorylation enrichment >= 0.8? DFFDLYGGEKL [PTPN11_Y66_F71L_YF]
Given back: MET

Asked: Quick check, phosphorylation enrichment >= 0.8? GEPLSYTRFSL [TFRC_Y20]
Given back: MET

Asked: Quick check, phosphorylation enrichment >= 0.8? EERKTYVNTML [TEK_Y1102_T1106M]
Given back: NOT MET

Asked: Quick check, phosphorylation enrichment >= 0.8? EMTRNYIIFIE [BCO2_Y294_G289E]
Given back: MET

Asked: Quick check, phosphorylation enrichment >= 0.8? TGEKLYQHKEF [ZNF283_Y627_R629H]
Given back: NOT MET

Asked: Quick check, phosphorylation enrichment >= 0.8? DAAEDYAEGVR [DHODH_Y194]
Given back: MET

Asked: Quick check, phosphorylation enrichment >= 0.8? SSLEDYVRETN [GIMAP6_Y176_G171S]
Given back: MET

Asked: Quick check, phosphorylation enrichment >= 0.8? IFGVSYGEYRY [CFTR_Y512_D513G]
Given back: MET

Asked: Quick check, phosphorylation enrichment >= 0.8? GSQERYFELVE [TSC2_Y407]
Given back: MET

Asked: Quick check, phosphorylation enrichment >= 0.8? FEAMEYLESKQ [BTK_Y511_C506Y_YF]
Given back: MET

Asked: Quick check, phosphorylation enrichment >= 0.8? YKGKKYKPLDL [RPL35_Y78]
Given back: NOT MET

Asked: Quick check, phosphorylation enrichment >= 0.8? RSSKTYLKTRS [LPL_Y329_M328T]
Given back: NOT MET

Asked: Quick check, phosphorylation enrichment >= 0.8? GFEVVYVTEPI [HSP90AB1_Y512_M513V]
Given back: MET

Asked: Quick check, phosphorylation enrichment >= 0.8? TNIKRYHIAKG [HARS1_Y150_V155G]
Given back: NOT MET

Asked: Quick check, phosphorylation enrichment >= 0.8? RTLIRYAKLGN [BEST1_Y131_N133K]
Given back: MET

Asked: Quick check, phosphorylation enrichment >= 0.8? PMWHPYKADVT [TP53TG5_Y255_V257A]
Given back: MET

Asked: Quick check, phosphorylation enrichment >= 0.8? LINLKYSVEEE [PCDH19_Y27]
Given back: MET

Asked: Quick check, phosphorylation enrichment >= 0.8? NSRFTYKLEVK [USH2A_Y3747_YF]
Given back: MET

Asked: Quick check, phosphorylation enrichment >= 0.8? PELIDYGKLRK [ACTN1_Y193]
Given back: MET

Asked: Quick check, phosphorylation enrichment >= 0.8? LVSCTYQLATG [FGFR2_Y608_R612T]
Given back: MET

Asked: Quick check, phosphorylation enrichment >= 0.8? TKFRNYLIPKG [CYP2C8_Y379]
Given back: NOT MET

Asked: Quick check, phosphorylation enrichment >= 0.8? LVPPRYVRSEI [PKP2_Y194_A195V]
Given back: NOT MET

Asked: Quick check, phosphorylation enrichment >= 0.8? TDKLFYIFTPG [SLC27A4_Y243_S247P_YF]
Given back: MET

Asked: Quick check, phosphorylation enrichment >= 0.8? IHETTYNSIMK [ACTA1_Y281]
Given back: NOT MET

Asked: Quick check, phosphorylation enrichment >= 0.8? SHGKQYRVPSD [HHIPL2_Y395_R394Q]
Given back: NOT MET

Asked: Quick check, phosphorylation enrichment >= 0.8? KEDSAYGSQSV [NFKB2_Y868]
Given back: MET

Asked: Quick check, phosphorylation enrichment >= 0.8? TTSQPYRRLCS [USH2A_Y534_C536R]
Given back: NOT MET

Asked: Quick check, phosphorylation enrichment >= 0.8? SLAARYYNWVC [FLT4_Y1230_S1235C]
Given back: MET

Asked: Quick check, phosphorylation enrichment >= 0.8? FITVGYVDDTQ [HLA-B_Y51_S48T]
Given back: MET

Asked: Quick check, phosphorylation enrichment >= 0.8? RAFSWYQHQRA [NDST1_Y714_YF]
Given back: MET

Asked: Quick check, phosphorylation enrichment >= 0.8? TTKVSYRASQP [MKI67_Y1737]
Given back: NOT MET

Asked: Quick check, phosphorylation enrichment >= 0.8? AFLQTYSHEVS [PCDHGA5_Y753]
Given back: MET

Asked: Quick check, phosphorylation enrichment >= 0.8? DRLASDLDKVR [KRT10_Y160_Y160D]
Given back: NOT MET

Asked: Quick check, phosphorylation enrichment >= 0.8? QTLEAYIRCNK [SPAST_Y604_W607C]
Given back: MET

Asked: Quick check, phosphorylation enrichment >= 0.8? LLKKIYLMLDN [STAT1_Y203_M202I]
Given back: MET

Asked: Quick check, phosphorylation enrichment >= 0.8? VHFARYLAMNK [HARS1_Y138_P134H]
Given back: MET

* * *

system: c-Src; experiment: phosphorylation enrichment, bacterial display (enrichment ratio); higher = better substrate or ligand; peptides without Tyr show the background
So I've got a bunch of sequences here, and I need their phosphorylation enrichment values.
# answer = number (no unit)

# phosphorylation enrichment (sequence: SLAARYYNWVC [FLT4_Y1230_S1235C] ) is 0.597

# phosphorylation enrichment (sequence: TTKVSYRASQP [MKI67_Y1737] ) is 0.343

# phosphorylation enrichment (sequence: SHMVNYQPFRK [TEX37_Y25_D24N_YF] ) is 0.492

# phosphorylation enrichment (sequence: CTIIHYNFMCN [TP53_Y234_T231I_YF] ) is 0.445

# phosphorylation enrichment (sequence: KYWREYILSLE [GPC3_Y299] ) is 0.856

# phosphorylation enrichment (sequence: LAETSYVKVLE [MAGEA1_Y276] ) is 0.512

# phosphorylation enrichment (sequence: HSLHDYKEALM [ADA2_Y337] ) is 0.522

# phosphorylation enrichment (sequence: WLFFRYLAIGC [ATP2A2_Y836] ) is 0.432

# phosphorylation enrichment (sequence: RELGEYALAEY [ALDH1A3_Y492] ) is 1.14

# phosphorylation enrichment (sequence: TKYVAYIESQG [KDM4B_Y34_N29T] ) is 0.418

# phosphorylation enrichment (sequence: IFKAAYFGVFD [SLC25A4_Y191_R188K_YF] ) is 0.625

# phosphorylation enrichment (sequence: YKGKKYKPLDL [RPL35_Y78] ) is 0.541

# phosphorylation enrichment (sequence: FLRTGYSVPFG [TGM1_Y370_YF] ) is 0.53

# phosphorylation enrichment (sequence: QTWKTYVRQQQ [SFI1_Y164] ) is 0.37

# phosphorylation enrichment (sequence: NFATLYLKIFH [PDE6B_Y219_YF] ) is 0.434

# phosphorylation enrichment (sequence: PVRIAYGRPRG [SUGP2_Y985_D986G] ) is 0.816

# phosphorylation enrichment (sequence: PDNKPYIFKVF [PIK3AP1_Y553_E551K] ) is 0.526

# phosphorylation enrichment (sequence: DPADRYLTEQF [CDKL5_Y286_C291Y_YF] ) is 0.594

# phosphorylation enrichment (sequence: DYYDLYGGEKK [PTPN11_Y66_F71K] ) is 3.65

# phosphorylation enrichment (sequence: KKMEVYQSIAD [MYBPC3_Y548_L545M] ) is 0.91

# phosphorylation enrichment (sequence: NDTAGYFVIGG [SEL1L3_Y399_I401V] ) is 0.727

# phosphorylation enrichment (sequence: SVTCTYSPALT [TP53_Y126_N131T] ) is 0.741

# phosphorylation enrichment (sequence: GAVDTYCRHNF [HLA-DRB1_Y107_A102G_YF] ) is 0.49

# phosphorylation enrichment (sequence: KLKRSYSSPDI [USP8_Y717] ) is 0.396

# phosphorylation enrichment (sequence: YRKNIYNVKST [SYNE2_Y575] ) is 0.474

# phosphorylation enrichment (sequence: CTTIHDNYMCN [TP53_Y234_Y234D] ) is 0.44

# phosphorylation enrichment (sequence: SIKDKYVTAVF [KCNH2_Y611_L615V_YF] ) is 0.501

# phosphorylation enrichment (sequence: TNYPLYLRSLE [MTM1_Y71_R69P] ) is 0.499

# phosphorylation enrichment (sequence: FLAATYPTVGQ [NF1_Y2508_YF] ) is 0.426

# phosphorylation enrichment (sequence: SDVCMYRKNTF [SYNE2_Y570_I574T_YF] ) is 0.4

# phosphorylation enrichment (sequence: FADIAYNYRHA [PAH_Y166_G171A] ) is 0.503

# phosphorylation enrichment (sequence: GVPLGYPIKAS [ELN_Y206_P211S] ) is 0.381

# phosphorylation enrichment (sequence: DGTESYLTVSS [PLK1_Y462] ) is 0.465

# phosphorylation enrichment (sequence: THPFPYLSLEI [MLH1_Y293_L292P] ) is 0.554

# phosphorylation enrichment (sequence: QELRRYLESGV [MICA_Y194_K196E] ) is 0.465

# phosphorylation enrichment (sequence: KPYRVYCDMNT [FGB_Y269] ) is 0.562

# phosphorylation enrichment (sequence: QMEKICTQQIQ [CCNB1IP1_Y125_Y125C] ) is 0.573

# phosphorylation enrichment (sequence: SPPILYSFYLN [FCRL6_Y239_D244N] ) is 2.87

# phosphorylation enrichment (sequence: HKETGYVVERP [BCLAF1_Y466_L461H] ) is 0.652

# phosphorylation enrichment (sequence: EERNPYFSSAR [MCCC2_Y520_G517R_YF] ) is 1.08

# phosphorylation enrichment (sequence: TDIVAYSGWVQ [SPTBN2_Y477_R480W] ) is 1.4

# phosphorylation enrichment (sequence: RSDEDYLFREE [POR_Y573_YF] ) is 0.836

# phosphorylation enrichment (sequence: SSEYHYVGGFY [CTSC_Y347] ) is 3.33

# phosphorylation enrichment (sequence: RDMMDYMPQGV [CYP21A2_Y259_L261P] ) is 0.596

# phosphorylation enrichment (sequence: ACEVLYNIAFM [NCF2_Y125] ) is 2.17

# phosphorylation enrichment (sequence: FTNRSYDLDYD [MYC_Y12_N11S] ) is 0.576

# phosphorylation enrichment (sequence: APSHAYHRGVL [ANO1_Y981_G983R] ) is 0.426

# phosphorylation enrichment (sequence: GGGGSYNVFGN [HNRNPA1_Y312_D314V] ) is 0.488

# phosphorylation enrichment (sequence: HLSPEYKQNEI [GJB1_Y243_R238H] ) is 0.532

# phosphorylation enrichment (sequence: SGEKPYKCSEC [ZNF543_Y283] ) is 0.544

# phosphorylation enrichment (sequence: FNNPAYYVLEG [INPPL1_Y986] ) is 2.06

# phosphorylation enrichment (sequence: WGLCSYYETSK [MAGED2_Y448_R446C] ) is 0.712

# phosphorylation enrichment (sequence: REIIAYQPFGK [PRKCG_Y529_P524R_YF] ) is 0.466

# phosphorylation enrichment (sequence: SVVVHYEPPEV [TP53_Y220_P219H] ) is 0.485

# phosphorylation enrichment (sequence: LNTFHHAGVSA [POLR2A_Y1109_Y1109H] ) is 1.17

# phosphorylation enrichment (sequence: LKVDVYGRSHK [FUT3_Y222] ) is 0.379

# phosphorylation enrichment (sequence: MGIMLYGVDSR [PKD1_Y3143_V3138M] ) is 0.496
